Experimental target: human PKCθ full length enzyme (Homo sapiens, UniProt Q04759)
Construct: human PKCθ full length enzyme (Panvera Cat# P2996); purchased Panvera P2996
Sequence (Q04759 whole entry): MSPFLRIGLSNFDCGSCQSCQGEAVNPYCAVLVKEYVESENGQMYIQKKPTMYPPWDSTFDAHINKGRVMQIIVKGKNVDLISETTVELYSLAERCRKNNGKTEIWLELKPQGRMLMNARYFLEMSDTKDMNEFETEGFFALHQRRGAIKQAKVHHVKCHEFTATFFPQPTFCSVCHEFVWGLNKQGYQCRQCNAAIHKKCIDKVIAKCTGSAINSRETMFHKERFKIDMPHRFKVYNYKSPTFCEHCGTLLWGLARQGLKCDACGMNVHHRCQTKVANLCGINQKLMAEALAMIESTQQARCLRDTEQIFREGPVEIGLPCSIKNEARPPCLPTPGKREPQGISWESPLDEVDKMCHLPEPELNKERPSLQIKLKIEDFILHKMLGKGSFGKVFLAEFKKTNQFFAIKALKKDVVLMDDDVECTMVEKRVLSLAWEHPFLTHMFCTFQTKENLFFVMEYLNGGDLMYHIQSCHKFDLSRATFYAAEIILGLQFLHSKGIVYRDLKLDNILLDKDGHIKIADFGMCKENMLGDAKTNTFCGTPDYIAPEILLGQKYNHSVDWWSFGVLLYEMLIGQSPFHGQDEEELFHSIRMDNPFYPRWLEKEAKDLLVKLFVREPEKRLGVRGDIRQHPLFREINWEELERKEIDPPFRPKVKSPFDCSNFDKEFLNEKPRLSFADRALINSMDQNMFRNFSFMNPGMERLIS
Method notes: PKCθ IMAP assay (fluorescence polarization)
Type: biochemical
Measurement conditions: human PKCθ full length enzyme, IMAP; average value; read-out: IC50 PKCθ IMAP
Outcome measure: IC50 (nM)

Worked cases, answers included:
N#Cc1cncc(-c2cc3ccccc3o2)c1Nc1ccc2[nH]ncc2c1; 1000
CCCCNC(=O)Nc1ccc(-c2cncc(C#N)c2Nc2ccc3[nH]ccc3c2C)cc1; 7
N#Cc1cncc(-c2cccc(-c3ccc(C(=O)NCc4ccccn4)cc3)c2)c1Nc1ccc2[nH]ccc2c1; 590
N#Cc1cncc(-c2ccc(OCCCl)cc2)c1Nc1cccc2[nH]ccc12; 8
Cc1c(Nc2c(C#N)cncc2-c2cccc(CN(C)C)c2)ccc2[nH]ccc12; 7
Cc1c(Nc2c(C#N)cncc2-c2cc3cc(CN4CCN(S(C)(=O)=O)CC4)ccc3o2)ccc2[nH]ccc12; 15
COc1ccc(-c2cncc(C#N)c2Nc2cc(Cl)c3[nH]ccc3c2C)cc1OC; 16
Cc1c(Nc2c(C#N)cncc2-c2cc3cc(CN4CCN(C(=O)OC(C)(C)C)CC4)ccc3o2)ccc2[nH]ccc12; 58

1. Cc1c(Nc2c(C#N)cncc2-c2cc3cc(CN4CCN(C)CC4)ccc3o2)ccc2[nH]ccc12
2. Cc1c(Nc2c(C#N)cncc2-c2cscn2)ccc2[nH]ccc12
Could you point out whether the larger IC50 belongs to 1 or to 2 ? Your choice should be expressed through its label. 2

P. N#Cc1cncc(-c2cccc(-c3ccc(C=O)s3)c2)c1Nc1ccc2[nH]ccc2c1
Q. Cc1c(Nc2c(C#N)cncc2-c2cc3cc(CN4CCC(N5CCCC5)CC4)ccc3o2)ccc2[nH]ccc12
# min-compare on IC50 between P and Q Write the label of whichever entry you select. Q

A. COc1ccc(-c2cncc(C#N)c2Nc2ccc3[nH]c(C)cc3c2)cc1OC
B. N#Cc1cncc(-c2cccc(-c3ccc(C(=O)NCc4ccncc4)cc3)c2)c1Nc1ccc2[nH]ccc2c1
C. COc1ccc(-c2cncc(C#N)c2Nc2ccc3[nH]ccc3c2)cc1OCCNCCc1cccnc1
Please list these compounds in decreasing order of IC50. Give your ranking as a list of the labels in the requested order. B, A, C
(B: 250 nM, A: 65 nM, C: 30 nM)
